# TARGET UNDER TEST: HLA-A*01:01 class I complex (biotinylated heavy chain with beta2-microglobulin) (human)
# ASSAY PROTOCOL: UV peptide exchange + HLA class I ELISA; % of Pos control peptide
# STUDY CONDITIONS: remark: other sources report otherwise
QUANTITY MEASURED: exchange rate with Pos peptide (%)
Number in %, nothing else.

Exam item: What value of measured exchange rate with Pos peptide is listed for FLFLLLPLS (here or on the partner: biotinylated heavy chain) [P87 9-mer neoantigen peptide … (AR-Intron splice variant)] ?
Marked response: 1.1

Exam item: Now the binder LMAQRLLLR (here or on the partner: biotinylated heavy chain) [P97 9-mer neoantigen peptide … (FOXRED2-TXN2 fusion)]
Marked response: 2.5

Exam item: Now the binder IPVLTRWPL (here or on the partner: biotinylated heavy chain) [P19 9-mer neoantigen peptide … (TMEM222-LOC644961 fusion)]
Marked response: 5.2

Exam item: Now the binder YCMAAPMGL (here or on the partner: biotinylated heavy chain) [P76 9-mer neoantigen peptide … (AR-V3 splice variant)]
Marked response: 0.1

Exam item: Now the binder RVGNCKHLK (here or on the partner: biotinylated heavy chain) [P82 9-mer neoantigen peptide … (AR-V7 splice variant)]
Marked response: 1.5

Exam item: Now the binder CYLGRQKRF (here or on the partner: biotinylated heavy chain) [P61 9-mer neoantigen peptide … (FOXA1.p.R261G missense)]
Marked response: 1.7

Exam item: Now the binder RAVRRMNTF (here or on the partner: biotinylated heavy chain) [P17 9-mer neoantigen peptide … (MSMB-NOCA4 fusion)]
Marked response: 4.9

Exam item: Now the binder IVWWCPMSR (here or on the partner: biotinylated heavy chain) [P98 9-mer neoantigen peptide … (TP53 (R213D) frameshift)]
Marked response: 2.5
